The entries that follow carry Ki values tested on UniProt:P00915, drawn from several published reports.
assay_endpoint: Ki (nM)

CCCCCCCC/C=C\CCCCCCCCNC(=O)CCN(CCc1ccccc1)CC(=O)N(CCc1ccc(S(N)(=O)=O)cc1)Cc1ccco1 :: 738

A. NS(=O)(=O)c1ccc(CCOC(=O)CN(CC(=O)O)CC(=O)O)cc1
B. NS(=O)(=O)c1ccc(NC(=O)CN(CCN(CC(=O)O)CC(=O)O)CC(=O)O)c(F)c1
C. CN(C)CCOCCOC(=O)c1cccc(S(=O)(=O)Nc2nnc(S(N)(=O)=O)s2)c1
## Task Order the items by recorded Ki; the first position goes to the largest value. To answer, arrange all of the labels according to the requested order.
## Result A, B, C
(A: 1100 nM, B: 360 nM, C: 13 nM)

A. NS(=O)(=O)c1ccc(CNS(=O)(=O)c2ccc(NC(=S)NN3CCOCC3)cc2)cc1
B. NS(=O)(=O)c1ccc(CCNC(=O)CN(CC(=O)O)CC(=O)O)cc1
## Task Larger number for Ki: A , or B ? When you have decided, please share the label of that item.
## Result B
(B: 3300 nM, A: 268 nM)
